# System: ddy strain of male mice
# Experiment: Acute toxicity (oral, mice, 7 days observation)
# Assay type: in vivo
# Applied Conditions: 2000 mg/kg oral
Property: Acute toxicity: death number of mice/number of mice tested; scope: individual molecules
Assay Endpoint: Acute toxicity: death number of mice/number of mice tested

[
  {
    "Sample Smiles": "COc1ccccc1NC(=O)N(C)C(=O)N(C)C",
    "Result": "2/4"
  },
  {
    "Sample Smiles": "CN(C)C(=O)N(C)C(=O)Nc1cccc(C(F)(F)F)c1",
    "Result": "4/4"
  },
  {
    "Sample Smiles": "Cc1cccc(NC(=O)N(C)C(=O)N(C)C)c1",
    "Result": "2/4"
  },
  {
    "Sample Smiles": "O=C(NC(=O)N1CCCCC1)Nc1ccccc1",
    "Result": "0/4"
  }
]

====

# Tested on: Wistar strain of male rats
# Experiment: Anti-inflammatory activity (acute carrageenin-induced inflammatory test, hindpaw)
# Assay type: in vivo, rat (Wistar)
# Applied Conditions: Rattus norvegicus, po, 3 h, read-out: Anti-inflammatory activity, inflammation inhibitory ratio
Property: inhibition in vivo at 100 mg/kg; scope: individual compounds

[
  {
    "Compound": "CCN(C(=O)N(C)C(=O)NC)c1ccc(Cl)cc1 [compound 60]",
    "inhibition in vivo at 100 mg/kg (%)": 33
  },
  {
    "Compound": "CCN(CC)C(=O)N(C)C(=O)Nc1ccccc1 [Compound No. 57, 1,1-diethyl-3-methyl-5-phenylbiuret]",
    "inhibition in vivo at 100 mg/kg (%)": 23
  },
  {
    "Compound": "CCCCN(C(=O)N(C)C(=O)NC)c1ccccc1 [compound 64, 1-n-Butyl-1-phenyl-3,5-dimethylbiuret]",
    "inhibition in vivo at 100 mg/kg (%)": 43
  },
  {
    "Compound": "CC(C)NC(=O)N(C)C(=O)N(C)c1ccccc1 [compound 56, 1,3-Dimethyl-1-phenyl-5-isopropylbiuret]",
    "inhibition in vivo at 100 mg/kg (%)": 47
  },
  {
    "Compound": "CCCNC(=O)NC(=O)N(C)c1ccccc1 [compound 51, 1-Methyl-1-phenyl-5-n-propylbiuret]",
    "inhibition in vivo at 100 mg/kg (%)": 60
  },
  {
    "Compound": "COc1ccc(NC(=O)NC(=O)N(C)C)cc1 [Compound No. 4, 1,1-Dimethyl-5-(4-methoxyphenyl)biuret]",
    "inhibition in vivo at 100 mg/kg (%)": 43
  },
  {
    "Compound": "O=C(NC(=O)N1CCCC1)Nc1ccccc1 [compound 67, 1,1-Tetramethylene-5-phenylbiuret]",
    "inhibition in vivo at 100 mg/kg (%)": 33
  }
]

====

Property: Anti-pyretic activity, inhibitory ratio (febril index); scope: individual molecules
# Tested on: Wistar strain of male rats
# Experiment: Anti-pyretic activity (dry-yeast-induced fever)
# Assay type: in vivo, rat (Wistar)
# Applied Conditions: oral (dose not given), up to 4 hours after administration
Assay Endpoint: Anti-pyretic activity, inhibitory ratio (febril index) (%)

[
  {
    "Sample Smiles": "CN(C)C(=O)N(C)C(=O)Nc1cccc(Cl)c1",
    "Measured Number": 43
  },
  {
    "Sample Smiles": "Cc1c(Cl)cccc1NC(=O)N(C)C(=O)N(C)C",
    "Measured Number": 45
  },
  {
    "Sample Smiles": "CN(C)C(=O)N(C)C(=O)Nc1c(F)c(F)cc(F)c1F",
    "Measured Number": 33
  },
  {
    "Sample Smiles": "CN(C)C(=O)N(C(=O)Nc1ccccc1)c1ccccc1",
    "Measured Number": 14
  },
  {
    "Sample Smiles": "CN(C(=O)Nc1ccccc1)C(=O)N1CCOCC1",
    "Measured Number": 17
  },
  {
    "Sample Smiles": "Cc1cccc(NC(=O)N(C)C(=O)N(C)C)c1",
    "Measured Number": 31
  },
  {
    "Sample Smiles": "CCNC(=O)NC(=O)N(C)c1ccccc1",
    "Measured Number": 90
  },
  {
    "Sample Smiles": "CCN(C(=O)N(C)C(=O)NC)c1ccccc1",
    "Measured Number": 137
  }
]
